Target: Gastrin/cholecystokinin type B receptor (Cavia porcellus)
Assay: Inhibition of binding of [3H]N-Me-N-Leu-CCK-8 to cholecystokinin type B receptor in guinea pig brain cortex
pIC50: −log10 of the molar value.
Would you please tag the item Criterion met when its pIC50 is 7 or above, and Criterion not met when it is below?

compound: O=C(CCC(NC(=O)c1cc(Cl)cc(Cl)c1)C(=O)N1CCC2(CCCC2)CC1)Nc1ccc(C(=O)O)cc1 (centres undefined)
assayed system: Gastrin/cholecystokinin type B receptor (Cavia porcellus)
group: Criterion not met
//
compound: O=C(CCC(NC(=O)c1cc(Cl)cc(Cl)c1)C(=O)N1CCC2(CCCC2)CC1)N[C@H](Cc1c[nH]c2ccccc12)C(=O)O (some centres undefined)
assayed system: Gastrin/cholecystokinin type B receptor (Cavia porcellus)
group: Criterion met
//
compound: O=C(O)CC[C@H](NC(=O)CCC(NC(=O)c1cc(Cl)cc(Cl)c1)C(=O)N1CCC2(CCCC2)CC1)C(=O)Nc1ccc2c(c1)CCC2 (some centres undefined)
assayed system: Gastrin/cholecystokinin type B receptor (Cavia porcellus)
group: Criterion not met

Ask: hey, is pIC50 for this one >= 7? O=C(O)CC[C@H](NC(=O)CCC(NC(=O)c1cc(Cl)cc(Cl)c1)C(=O)N1CCC2(CCCC2)CC1)C(=O)Nc1cccc2c1CCCC2 (some centres undefined)
Reply: Criterion met

Ask: Please answer likewise for O=C(CC[C@H](NC(=O)CCC(NC(=O)c1cc(Cl)cc(Cl)c1)C(=O)N1CCC2(CCCC2)CC1)C(=O)O)Nc1cccc2ccccc12 (some centres undefined)
Reply: Criterion met

Ask: Please answer likewise for CN(C(=O)CCC(NC(=O)c1cc(Cl)cc(Cl)c1)C(=O)N1CCC2(CCCC2)CC1)c1ccc(C(=O)O)cc1 (centres undefined)
Reply: Criterion not met
